The reported numbers originate from patent US20230002393A1.

Consider the following compounds; for each one, report its pIC50.
- System name: CDK6/CyclinD1 (Homo sapiens)
- Sequence (Q00534 whole entry): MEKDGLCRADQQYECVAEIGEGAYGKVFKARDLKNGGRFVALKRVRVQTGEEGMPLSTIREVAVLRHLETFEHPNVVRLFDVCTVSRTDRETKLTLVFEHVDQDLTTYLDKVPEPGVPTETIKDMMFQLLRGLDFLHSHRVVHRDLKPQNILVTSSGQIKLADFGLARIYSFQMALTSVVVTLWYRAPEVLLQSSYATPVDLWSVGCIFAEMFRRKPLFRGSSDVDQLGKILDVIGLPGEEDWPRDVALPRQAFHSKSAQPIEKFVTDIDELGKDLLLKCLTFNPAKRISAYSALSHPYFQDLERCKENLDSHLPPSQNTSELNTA
- Sequence (P24385 whole entry partner): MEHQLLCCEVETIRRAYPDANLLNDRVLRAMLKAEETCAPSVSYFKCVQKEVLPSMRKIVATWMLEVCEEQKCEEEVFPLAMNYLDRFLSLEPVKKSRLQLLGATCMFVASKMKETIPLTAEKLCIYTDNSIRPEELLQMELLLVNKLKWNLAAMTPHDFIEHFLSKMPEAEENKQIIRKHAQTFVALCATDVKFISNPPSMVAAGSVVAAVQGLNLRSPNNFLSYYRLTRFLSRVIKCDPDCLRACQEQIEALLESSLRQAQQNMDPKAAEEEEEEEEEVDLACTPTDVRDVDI
- Protocol: In vitro cell-free CDK6/CyclinD1 kinase activity assay (TR-FRET)
- Test conditions: ATP at Km
pIC50: −log10 of the molar value.

-- ask Would you mind telling me what pIC50 value was observed for `C1=C(c2c(-c3cn[nH]c3)cc3cnc(Nc4ccc(N5CCNCC5)cn4)nn23)CCC1` ?
-- reply > 7.00

-- ask Entry `N#Cc1cc2cnc(Nc3ccc(N4CCNCC4)cc3)nn2c1N1CCC2(CCCCC2)C1` please
-- reply > 7.00

-- ask Entry `COCCOc1ccc(-c2c(C(=O)N(C)C)cc3cnc(Nc4ccc(N5CCNC6(CC6)C5)cn4)nn23)cc1` please
-- reply > 7.00

For each listed entry, give its pIC50.
1. [2H]C([2H])([2H])N1CCN(c2ccc(Nc3ncc4cc(C(=O)N(C([2H])([2H])[2H])C([2H])([2H])[2H])c(C5=CCCC5)n4n3)nc2)CC1
2. C1=C(c2c(-c3cncnc3)cc3cnc(Nc4ccc(N5CCNCC5)cn4)nn23)CCC1
3. Cc1noc(C)c1-c1cc2cnc(Nc3ccc(N4CCNCC4)cn3)nn2c1-c1ccc(F)cc1
4. N#Cc1cc2cnc(Nc3ccc(N4CCNCC4)cc3)nn2c1N1CCCC1
5. COc1cc(F)ccc1-c1c(-c2c[nH]nc2C)cc2cnc(Nc3ccc(N4CCNCC4)cn3)nn12

-- reply
1: > 7.00; 2: > 7.00; 3: 6.00 to 7.00; 4: > 7.00; 5: 6.00 to 7.00
